Test: Tmax in men plasma at 25 to 32 mg by LC/MS/MS analysis
Type: ADME, organism-based
Settings: male, human

# cpd_smiles, unit_of_measure, Tmax
records = [
    ("CCOc1nc2cccc(C(=O)O)c2n1Cc1ccc(-c2ccccc2-c2nnn[nH]2)cc1", "h", 5.1),
]

====

Assay: Half life in human plasma expressing CYP2C8*3 allele carrier polymorphism at 50 mg by LC/MS/MS analysis

# cpd_smiles, half-life, min
rows = [
    ("CCCCc1nc(Cl)c(CO)n1Cc1ccc(-c2ccccc2-c2nn[nH]n2)cc1", 150),
]

====

Assay: Half life in human plasma expressing CYP2C8*4 allele carrier polymorphism at 50 mg by LC/MS/MS analysis

# compound, half-life, h
data = [
    ("CCCCc1nc(Cl)c(CO)n1Cc1ccc(-c2ccccc2-c2nn[nH]n2)cc1 [LOSARTAN]", 2.7),
]

====

Assay: AUC in human plasma expressing CYP2C8*1/*1 polymorphism at 25 to 32 mg by LC/MS/MS analysis
Type: ADME, organism-based
measured_endpoint: AUC (ng·h/mL)

# cpd_smiles, measured_endpoint, unit_of_measure, value_measured
measured = [
    ("CCOc1nc2cccc(C(=O)O)c2n1Cc1ccc(-c2ccccc2-c2nnn[nH]2)cc1", "AUC", "ng·h/mL", 3510),
]

====

Assay: Half life in human plasma expressing CYP2C9*3 allele carrier polymorphism at 80 mg by LC/MS/MS analysis
Assay type: ADME, organism-based

# cpd_smiles, unit_of_measure, half-life
records = [
    ("CCCc1nc2c(C)cc(-c3nc4ccccc4n3C)cc2n1Cc1ccc(-c2ccccc2C(=O)O)cc1", "min", 1810),
]

====

Assay: Clearance in human plasma expressing CYP2C9*3 allele carrier polymorphism at 50 mg by LC/MS/MS analysis
Format: ADME, organism-based

# cpd_smiles, clearance / mL/min/kg
records = [
    ("CCCCc1nc(Cl)c(CO)n1Cc1ccc(-c2ccccc2-c2nn[nH]n2)cc1", 21.7),
]

====

Test: Cmax in women plasma at 25 to 32 mg by LC/MS/MS analysis
Assay type: ADME, organism-based
Settings: female, human
measured_endpoint: Cmax (ng/mL)

# cpd_smiles, unit_of_measure, value_measured
records = [
    ("CCOc1nc2cccc(C(=O)O)c2n1Cc1ccc(-c2ccccc2-c2nnn[nH]2)cc1", "ng/mL", 260),
]

====

Assay: AUC in men plasma at 25 to 320 mg by LC/MS/MS analysis
Format: ADME, organism-based
Conditions: male, human

# cpd_smiles, AUC, ng·h/mL
rows = [
    ("CCCCC(=O)N(Cc1ccc(-c2ccccc2-c2nnn[nH]2)cc1)[C@H](C(=O)O)C(C)C", 38800),
]

====

Experiment: Cmax in human plasma expressing CYP2C9*2 allele carrier polymorphism treated with losartan at 50 mg by LC/MS/MS analysis
Type: ADME, organism-based
Parameters: dose 50 mg

# molecule, Cmax / ng/mL
rows = [
    ("CCCCc1nc(Cl)c(C(=O)O)n1Cc1ccc(-c2ccccc2-c2nn[nH]n2)cc1 [CARBOXYLIC ACID METABOLITE]", 224),
]

====

Assay: Clearance in human plasma expressing CYP2C9*2 allele carrier polymorphism at 50 mg by LC/MS/MS analysis
Type: ADME, organism-based

# cpd_smiles, clearance [mL/min/kg]
records = [
    ("CCCCc1nc(Cl)c(CO)n1Cc1ccc(-c2ccccc2-c2nn[nH]n2)cc1", 31.7),
]

====

Assay: Cmax in human plasma expressing CYP2C9*1/*1 polymorphism at 25 to 320 mg by LC/MS/MS analysis
Assay type: ADME, organism-based
measured_endpoint: Cmax (ng/mL)

# cpd_smiles, value_measured
data = [
    ("CCCCC(=O)N(Cc1ccc(-c2ccccc2-c2nnn[nH]2)cc1)[C@H](C(=O)O)C(C)C", 4880),
]

====

Assay: Cmax in human plasma expressing CYP2C8*4 allele carrier polymorphism at 25 to 32 mg by LC/MS/MS analysis
Format: ADME, organism-based

# cpd_smiles, Cmax
data = [
    ("CCOc1nc2cccc(C(=O)O)c2n1Cc1ccc(-c2ccccc2-c2nnn[nH]2)cc1", "287 ng/mL"),
]

====

Experiment: Clearance in human plasma expressing CYP2C8*4 allele carrier polymorphism at 25 to 32 mg by LC/MS/MS analysis
Format: ADME, organism-based
measured_endpoint: clearance (mL/min/kg)

# cpd_smiles, measured_endpoint, unit_of_measure, value_measured
rows = [
    ("CCOc1nc2cccc(C(=O)O)c2n1Cc1ccc(-c2ccccc2-c2nnn[nH]2)cc1", "clearance", "mL/min/kg", 2.17),
]

====

Assay: Tmax in women plasma treated with losartan at 50 mg by LC/MS/MS analysis
Format: ADME, organism-based
Settings: female, human

# compound, Tmax [h]
records = [
    ("CCCCc1nc(Cl)c(C(=O)O)n1Cc1ccc(-c2ccccc2-c2nn[nH]n2)cc1 [CARBOXYLIC ACID METABOLITE]", 3.7),
]

====

Assay: AUC in human plasma expressing CYP2C9*1/*1 polymorphism at 25 to 320 mg by LC/MS/MS analysis
Type: ADME, organism-based

# cpd_smiles, AUC
records = [
    ("CCCCC(=O)N(Cc1ccc(-c2ccccc2-c2nnn[nH]2)cc1)[C@H](C(=O)O)C(C)C", "40600 ng·h/mL"),
]

====

Assay: Clearance in men plasma at 50 mg by LC/MS/MS analysis
Format: ADME, organism-based
Conditions: male, human
measured_endpoint: clearance

# compound, value_measured
rows = [
    ("CCCCc1nc(Cl)c(CO)n1Cc1ccc(-c2ccccc2-c2nn[nH]n2)cc1 [LOSARTAN]", "27.7 mL/min/kg"),
]

====

Experiment: Cmax in human plasma expressing CYP2C8*3 allele carrier polymorphism at 25 to 32 mg by LC/MS/MS analysis
Type: ADME, organism-based

# cpd_smiles, Cmax [ng/mL]
rows = [
    ("CCOc1nc2cccc(C(=O)O)c2n1Cc1ccc(-c2ccccc2-c2nnn[nH]2)cc1", 214),
]

====

Experiment: Tmax in human plasma expressing CYP2C8*3 allele carrier polymorphism at 25 to 32 mg by LC/MS/MS analysis
Assay type: ADME, organism-based
measured_endpoint: Tmax (h)

# cpd_smiles, value_measured
data = [
    ("CCOc1nc2cccc(C(=O)O)c2n1Cc1ccc(-c2ccccc2-c2nnn[nH]2)cc1", 5.1),
]

====

Assay: Clearance in human plasma expressing CYP2C8*2 allele carrier polymorphism at 25 to 32 mg by LC/MS/MS analysis
Format: ADME, organism-based

# cpd_smiles, clearance, mL/min/kg
rows = [
    ("CCOc1nc2cccc(C(=O)O)c2n1Cc1ccc(-c2ccccc2-c2nnn[nH]2)cc1", 2.5),
]

====

Experiment: Cmax in human plasma expressing CYP2C8*1/*1 polymorphism at 25 to 320 mg by LC/MS/MS analysis
Type: ADME, organism-based
measured_endpoint: Cmax (ng/mL)

# cpd_smiles, value_measured
data = [
    ("CCCCC(=O)N(Cc1ccc(-c2ccccc2-c2nnn[nH]2)cc1)[C@H](C(=O)O)C(C)C", 4550),
]

====

Test: Half life in human plasma expressing CYP2C9*3 allele carrier polymorphism at 50 mg by LC/MS/MS analysis
measured_endpoint: half-life (h)

# compound, measured_endpoint, value_measured
rows = [
    ("CCCCc1nc(Cl)c(CO)n1Cc1ccc(-c2ccccc2-c2nn[nH]n2)cc1 [LOSARTAN]", "half-life", 3.1),
]

====

Assay: AUC in human plasma expressing CYP2C9*2 allele carrier polymorphism at 50 mg by LC/MS/MS analysis
Format: ADME, organism-based

# cpd_smiles, AUC / ng·h/mL
rows = [
    ("CCCCc1nc(Cl)c(CO)n1Cc1ccc(-c2ccccc2-c2nn[nH]n2)cc1", 366),
]

====

Test: Tmax in human plasma expressing CYP2C9*3 allele carrier polymorphism at 25 to 320 mg by LC/MS/MS analysis
Format: ADME, organism-based

# cpd_smiles, Tmax, h
measured = [
    ("CCCCC(=O)N(Cc1ccc(-c2ccccc2-c2nnn[nH]2)cc1)[C@H](C(=O)O)C(C)C", 3),
]

====

Assay: Tmax in men plasma at 25 to 320 mg by LC/MS/MS analysis
Format: ADME, organism-based
Conditions: male, human
measured_endpoint: Tmax (h)

# cpd_smiles, measured_endpoint, unit_of_measure, value_measured
records = [
    ("CCCCC(=O)N(Cc1ccc(-c2ccccc2-c2nnn[nH]2)cc1)[C@H](C(=O)O)C(C)C", "Tmax", "h", 3.2),
]

====

Assay: Tmax in men plasma at 80 mg by LC/MS/MS analysis
Type: ADME, organism-based
Details: male, human

# cpd_smiles, Tmax, h
data = [
    ("CCCc1nc2c(C)cc(-c3nc4ccccc4n3C)cc2n1Cc1ccc(-c2ccccc2C(=O)O)cc1", 1.3),
]

====

Assay: Half life in human plasma expressing CYP2C8*1/*1 polymorphism at 50 mg by LC/MS/MS analysis

# cpd_smiles, unit_of_measure, half-life
rows = [
    ("CCCCc1nc(Cl)c(CO)n1Cc1ccc(-c2ccccc2-c2nn[nH]n2)cc1", "h", 2.3),
]
